experimental.protocol: self-splicing fitness, log relative to wild type (ln ratio); higher = more splicing; Tetrahymena group I intron in knt gene, E. coli kanamycin selection, DiMSum; sequences stand for … in CUCUCU…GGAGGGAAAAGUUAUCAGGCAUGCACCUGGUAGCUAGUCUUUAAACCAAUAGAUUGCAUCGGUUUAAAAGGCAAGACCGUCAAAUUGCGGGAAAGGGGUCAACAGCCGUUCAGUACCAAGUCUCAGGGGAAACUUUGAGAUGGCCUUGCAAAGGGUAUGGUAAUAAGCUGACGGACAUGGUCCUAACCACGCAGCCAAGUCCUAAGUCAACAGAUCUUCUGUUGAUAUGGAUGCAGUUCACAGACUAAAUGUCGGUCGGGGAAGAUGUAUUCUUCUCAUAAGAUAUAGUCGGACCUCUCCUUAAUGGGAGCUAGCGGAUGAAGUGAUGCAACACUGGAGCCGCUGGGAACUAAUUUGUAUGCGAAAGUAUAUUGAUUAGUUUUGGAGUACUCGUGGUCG;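 also: selection with 25 µg/mL kanamycin versus none on LB agar overnight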
setup.conditions: 37 °C
// false (0) strictly below -1 in self-splicing fitness (ln); true (1) otherwise

1) UGCGAGCAAUAUUACGAGUA : false (0)

Query :: Decide: is the reported value of self-splicing fitness (ln) for `CGAGAGCAAUAUUACGAGGG` equal to or greater than -1?
Result :: false (0)

Query :: Evaluate `GUAAAGCAAUAUUACGCCUA` : self-splicing fitness (ln) at minimum -1?
Result :: true (1)

Query :: I'd appreciate it if you could say whether `GCUGAGCAAUAUUACGUUUG` has self-splicing fitness (ln) at least equal to -1.
Result :: false (0)

Query :: For this sequence, is measured self-splicing fitness (ln) -1 or higher? `UCUAAGCAAUAUUACGACGC`
Result :: true (1)

Query :: I'd appreciate it if you could say whether `CCGAAGCAAUAUUACGACUU` has self-splicing fitness (ln) at least equal to -1.
Result :: false (0)

Query :: Could you verify whether the entry `CGCGAGCAAUAUUACGCAGA` shows self-splicing fitness (ln) of no less than -1?
Result :: false (0)

Query :: Form field: self-splicing fitness (ln) at least -1? Entry: `CUAAAGCAAUAUUACGGACG`
Result :: true (1)
